assay: chemical genetic growth profiling, strain panel (AID 1159580);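 further: tested at 20 µM; growth read once vehicle control cultures reached saturation at 30 °C; 1 = growth at the plate median or of vehicle wells; lower values mean less growth of the strain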; conditions: S. cerevisiae deletion strains, growth OD, locus YMR223W, strain ubp8, hits give low values
In all, about 5,500 compounds went through this assay and about 2,000 (36%) were called active. About 18% were inconclusive and are not listed. The list shows a part of the results.
REPORTED_PROPERTY: normalized growth
Number only, please.

Worked examples follow.
Using the record for OC(Cn1cncn1)(Cn1cncn1)c1ccc(F)cc1F , report its normalized growth. 0.98

Using the record for NC(CO)C(=O)NNCc1ccc(O)c(O)c1O (stereo unspecified) , report its normalized growth. 1.01

Using the record for C=C1C(=O)O[C@@H]2C3O[C@]3(C)CC/C=C(\C)CC[C@@H]12 (stereo partly specified) , report its normalized growth. 0.801

Others:
Using the record for Cc1cccc(C)c1NC1=NCCCS1 , report its normalized growth. 0.969

Using the record for COc1ccc2c(c1)CCC(c1ccccc1)=C2c1ccc(OCCN2CCCC2)cc1 , report its normalized growth. 0.478
